- runDescription: Prodrug conversion assessed as porcine pancreas Kallikrein-mediated compound hydrolysis by measuring half life by HPLC analysis
- Assay type: ADME, Sus scrofa
- runParameters: pig
Catalogue of molecules with associated t1/2

molecule	t1/2 (min)
Cl.NCC(=O)OCCOc1cccc2c1C(=O)c1c(OCCOC(=O)CN)cc(NC(=O)CCl)cc1C2=O	35.9
Cl.N[C@@H](CCC(=O)O)C(=O)OCCOc1cccc2c1C(=O)c1c(OCCOC(=O)[C@@H](N)CCC(=O)O)cc(NC(=O)CCl)cc1C2=O	110
C[C@H](N)C(=O)OCCOc1cccc2c1C(=O)c1c(OCCOC(=O)[C@H](C)N)cc(NC(=O)CCl)cc1C2=O.Cl	24.7
Cl.N[C@@H](Cc1ccccc1)C(=O)OCCOc1cccc2c1C(=O)c1c(OCCOC(=O)[C@@H](N)Cc3ccccc3)cc(NC(=O)CCl)cc1C2=O	6.5
CC(C)[C@H](N)C(=O)OCCOc1cccc2c1C(=O)c1c(OCCOC(=O)[C@@H](N)C(C)C)cc(NC(=O)CCl)cc1C2=O.Cl	126.3
CC(C)C[C@H](N)C(=O)OCCOc1cccc2c1C(=O)c1c(OCCOC(=O)[C@@H](N)CC(C)C)cc(NC(=O)CCl)cc1C2=O.Cl	39.6
Cl.N=C(N)NCCC[C@H](N)C(=O)OCCOc1cccc2c1C(=O)c1c(OCCOC(=O)[C@@H](N)CCCNC(=N)N)cc(NC(=O)CCl)cc1C2=O	0.2
Cl.N[C@@H](Cc1ccc(O)cc1)C(=O)OCCOc1cccc2c1C(=O)c1c(OCCOC(=O)[C@@H](N)Cc3ccc(O)cc3)cc(NC(=O)CCl)cc1C2=O	6.5
CC[C@H](C)[C@H](N)C(=O)OCCOc1cccc2c1C(=O)c1c(OCCOC(=O)[C@@H](N)[C@@H](C)CC)cc(NC(=O)CCl)cc1C2=O.Cl	48.4
Cl.NCCCC[C@H](N)C(=O)OCCOc1cccc2c1C(=O)c1c(OCCOC(=O)[C@@H](N)CCCCN)cc(NC(=O)CCl)cc1C2=O	2.4
CSCC[C@H](N)C(=O)OCCOc1cccc2c1C(=O)c1c(OCCOC(=O)[C@@H](N)CCSC)cc(NC(=O)CCl)cc1C2=O.Cl	12
Cl.NC(=O)CC[C@H](N)C(=O)OCCOc1cccc2c1C(=O)c1c(OCCOC(=O)[C@@H](N)CCC(N)=O)cc(NC(=O)CCl)cc1C2=O	66.9
